Biological target: T1, AAV9
T1 construct: also called adeno-associated virus serotype 9
Experiment: SPR, AAV on CM5 chip;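 further: surface plasmon resonance with AAV amine-coupled to the chip as ligand, nanobodies injected as analyte over a concentration series, rate constants and affinity fitted from binding curves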
Endpoint: koff

These recorded examples may help you get a feel for the data.
Binder	Endpoint	Result
A4-030 (VHH) VHH: VQLQESGGGLVQPGGSLRLSCAASGSSFTINTMGWYRQAPGKQRELVAAVTRGGSTNYAGSVKGRFTISRDNAKNTIYLQMNSLRPEDTAVYYCHVDEIRQSSWTTSNLWGQGTQVTVSS	koff	0.00025 s⁻¹
A4-018 (VHH) VHH: VQLQESGGGLVQAGGSLRLSCAASGSRFSINTMGWYRQAPGKQREFVATVTRGGNTNYAESVKGRFTISRDNAKNTVYLQMNSLRPEDTAVYYCHVDEVRDSSWTTSNIWGQGTQVTVSS	koff	0.00745 s⁻¹

Q) For A4-022 (VHH) VHH: VQLQESGGGLVQPGGSLRLSCAASGSGFSINTMGWYRQAPGKQRELVATVTRDGSTNYADFVKGRFTISRDNAKNTVYLQMNSLRPEDTAVYYCHLDEVRESSWTTSNLWGQGTQVTVSS , what is its reported koff?
A) 0.0001 s⁻¹

Q) Would you kindly repeat that for A4-024 (VHH) VHH: VQLQESGGGLVQPGGSLRLSCAASGSNFRINTMGWYRQAPGKQRELVATVTRGGSTNYADSVKGRFTISRDNPKNTVYLQMNSLRPEDTAVYYCHVDEVRESSWTTSNLWGQGTQVTVSS ?
A) 0.00173 s⁻¹

From: patent US20260193326A1
